- System: HIV-1 V370A
- test_protocol: MT4 cell antiviral assay, V370A
- Format: cell-based
- details: Human immunodeficiency virus 1, MT4, 120 h, read-out: EC50 V370A
pEC50: −log10 of the molar value. Structures can show the parent of a compound that is named as a salt.
Lab note: compare pEC50 against 7. Equal or greater, write Met. Smaller, write Not met.

Sample answers from the record:
CC(C)C1=C2C3CCC4[C@@]5(C)CC=C(c6ccc(C(=O)O)cc6)C(C)(C)C5CC[C@@]4(C)[C@]3(C)CC[C@@]2(NC(=O)CN(CCN(C)C)Cc2ccc(Cl)cc2)CC1=O (some centres unmarked) ... Met
CC(C)C1=C2[C@H]3CC[C@@H]4[C@@]5(C)CC=C(C6=CCC(C(=O)O)CC6)C(C)(C)[C@@H]5CC[C@@]4(C)[C@]3(C)CC[C@@]2(NCCN2CCS(=O)(=O)CC2)CC1=O (some centres unmarked) ... Met
CC(C)C1=C2[C@H]3CC[C@@H]4[C@@]5(C)CC=C(C6=CCC(C(=O)O)CC6)C(C)(C)[C@@H]5CC[C@@]4(C)[C@]3(C)CC[C@@]2(NCCN(CCN(C)C)Cc2ccc(Cl)cc2)CC1=O (some centres unmarked) ... Met

Test whether the molecule CC(C)C1=C2[C@H]3CC[C@@H]4[C@@]5(C)CC=C(c6ccc(C(=O)O)cc6)C(C)(C)[C@@H]5CC[C@@]4(C)[C@]3(C)CC[C@@]2(NCCN2CCS(=O)(=O)CC2)CC1=O [Example 5, hydrochloride] records pEC50 of 7 or higher.
Not met

Test whether the molecule CC(C)C1=C2[C@H]3CC[C@@H]4[C@@]5(C)CC=C(C6=CCC(C(=O)O)CC6)C(C)(C)[C@@H]5CC[C@@]4(C)[C@]3(C)CC[C@@]2(NCCN2CCC(S(C)(=O)=O)CC2)CC1=O (some centres unmarked) records pEC50 of 7 or higher.
Not met
